# Test Description: Mean residence time in rat at 10 mg/kg, iv
# Format: ADME, organism-based
# Design: dose 10 mg/kg, route intravenous
# Test Parameters: in vivo
Quantity Kind: MRT (min)
// return numeric value only (unit: min, not printed)

For the molecule shown here, `Cc1c(-c2ccc(C[C@H](NC(=O)c3c(F)cccc3F)C(=O)O)cc2)c(=O)n(C)c(=O)n1C` , give the reported MRT. 36.6

---

# Test Description: Mean residence time in cynomolgus monkey at 10 mg/kg, iv
# Format: ADME, organism-based, Macaca fascicularis
# Set-up: dose 10 mg/kg, route intravenous
# Test Parameters: in vivo
Quantity Kind: MRT

I have this compound here, `Cc1c(-c2ccc(C[C@H](NC(=O)c3c(F)cccc3F)C(=O)O)cc2)c(=O)n(C)c(=O)n1C` , and I need its recorded MRT. 15 min

---

# Test Description: Apparent permeability across human Caco2 cells
# Format: ADME, cell-based
# Test Parameters: Caco-2
In this section, each of the compounds is paired with its reported Papp.
Give the value in ×10⁻⁶ cm/s but do not write ×10⁻⁶ cm/s after it.

Would you please look over these solved cases?
> print(dat)
                                   compound  quantity.kind  assay.value
1  Cc1c(-c2ccc(C[C@H](NC(=O)c3c(Cl)cccc3Cl)C(=O)O)cc2)c(=O)n(C)c(=O)n1C           Papp         1.33
2  CC(=O)OC(C)OC(=O)[C@H](Cc1ccc(-c2c(C)n(C)c(=O)n(C)c2=O)cc1)NC(=O)c1c(F)cccc1F (some centres not stated)           Papp           12
3  CCOC(=O)[C@H](Cc1ccc(-c2c(C)n(C)c(=O)n(C)c2=O)cc1)NC(=O)c1c(C)cccc1Cl           Papp         34.7
4  CCOC(=O)[C@H](Cc1ccc(-c2c(C)n(C)c(=O)n(C)c2=O)cc1)NC(=O)c1c(Cl)cccc1Cl           Papp         18.3
5  CCOC(=O)[C@H](Cc1ccc(-c2c(C)n(C)c(=O)n(C)c2=O)cc1)NC(=O)c1c(F)cccc1F           Papp         26.9
6  Cc1cccc(Cl)c1C(=O)N[C@@H](Cc1ccc(-c2c(C)n(C)c(=O)n(C)c2=O)cc1)C(=O)O           Papp          2.9

Request the reported Papp associated with `Cc1c(-c2ccc(C[C@H](NC(=O)c3c(F)cccc3F)C(=O)O)cc2)c(=O)n(C)c(=O)n1C` 0.77

---

# Test Description: Clearance in cynomolgus monkey at 10 mg/kg, iv
# Format: ADME, organism-based, Macaca fascicularis
# Parameters: dose 10 mg/kg, route intravenous
# Test Parameters: in vivo
Quantity Kind: clearance (L/h/kg)
Quick note: give the figure in L/h/kg, leave out the unit.

Value lookup for clearance; key = `Cc1c(-c2ccc(C[C@H](NC(=O)c3c(F)cccc3F)C(=O)O)cc2)c(=O)n(C)c(=O)n1C` 0.413

---

# Test Description: AUC (0 to 8 hrs) in mouse at 10 mg/kg, iv
# Format: ADME, organism-based
# Parameters: time < 8 hr, dose 10 mg/kg, route intravenous
# Test Parameters: plasma
Quantity Kind: AUC(0-t) at 8 h (ng·h/mL)
Note: unit ng·h/mL is implicit; provide only the numeric part.

Please give the measured AUC(0-t) at 8 h for this compound: `Cc1c(-c2ccc(C[C@H](NC(=O)c3c(F)cccc3F)C(=O)O)cc2)c(=O)n(C)c(=O)n1C` 7890

---

# Target Under Test: Integrin alpha-4/beta-7 (Homo sapiens) (UniProt P13612+P26010)
# Test Description: Inhibition of human MAdCAM1 binding to integrin alpha4beta7 receptor in human RPMI 8866 cells labeled with Calcein AM relative to (S)-2-(2-chloro-6-methylbenzamido)-3-(4-(2,6-dichlorobenzamido)phenyl)propanoic acid
# Format: cell-based
List of Ratio IC50 values.
Answer with a bare number; do not write a unit.

Use these answered entries as a reference point.
> print(dat)
                            compound.smiles  assay.value
1  Cc1cccc(Cl)c1C(=O)N[C@@H](Cc1ccc(-c2c(C(F)(F)F)n(C)c(=O)n(C)c2=O)cc1)C(=O)O          2.4
2  Cc1cccc(Cl)c1C(=O)N[C@@H](Cc1ccc(-c2c(C)n(C)c(=O)n(C)c2=O)cc1)C(=O)O          6.1
3  CCc1cccc(Cl)c1C(=O)N[C@@H](Cc1ccc(-c2c(C)n(C)c(=O)n(C)c2=O)cc1)C(=O)O          2.3

Consider the compound shown here: `Cc1cc(C[C@H](NC(=O)c2c(Cl)cccc2Cl)C(=O)O)ccc1-c1cn(C)c(=O)n(C)c1=O` What is its recorded Ratio IC50? 1.9

What does the data say about its Ratio IC50? Entry: `CCn1c(C)c(-c2ccc(C[C@H](NC(=O)c3c(C)cccc3Cl)C(=O)O)cc2)c(=O)n(CC)c1=O` 1.7

I have this compound here, `Cc1cc(C[C@H](NC(=O)c2c(C)cccc2Cl)C(=O)O)ccc1-c1c(C)n(C)c(=O)n(C)c1=O` , and I need its recorded Ratio IC50. 1

Give its Ratio IC50 value. Item: `Cc1c(-c2ccc(C[C@H](NC(=O)c3c(Cl)cccc3Cl)C(=O)O)cc2)c(=O)n(C)c(=O)n1C` 16

Dear colleague, I am looking for the recorded Ratio IC50 of the following compound: `Cc1c(-c2ccc(C[C@H](NC(=O)c3c(F)cccc3F)C(=O)O)cc2)c(=O)n(C)c(=O)n1C` 3.3

---

# Test Description: AUC (0 to 8 hrs) in cynomolgus monkey at 10 mg/kg, iv
# Format: ADME, organism-based, Macaca fascicularis
# Parameters: time < 8 hr, dose 10 mg/kg, route intravenous
# Test Parameters: plasma
Quantity Kind: AUC(0-t) at 8 h
Quote the value and follow it with the unit of measurement.

Quick one: AUC(0-t) at 8 h of `Cc1c(-c2ccc(C[C@H](NC(=O)c3c(F)cccc3F)C(=O)O)cc2)c(=O)n(C)c(=O)n1C` ? 22200 ng·h/mL

---

# Test Description: Clearance in rat at 10 mg/kg, iv
# Type: ADME, organism-based
# Set-up: dose 10 mg/kg, route intravenous
# Test Parameters: in vivo
Quantity Kind: clearance (mL/min/kg)
Report the value in mL/min/kg with no unit label.

Which value of clearance has been reported for `Cc1c(-c2ccc(C[C@H](NC(=O)c3c(F)cccc3F)C(=O)O)cc2)c(=O)n(C)c(=O)n1C` in the records? 4.8

---

# Test Description: Clearance in dog at 5 mg/kg, iv
# Type: ADME, organism-based, Canis lupus familiaris
# Design: dose 5 mg/kg, route intravenous
# Test Parameters: in vivo
Quantity Kind: clearance (mL/min/kg)
State the answer as a number, implicitly in mL/min/kg.

What clearance value was documented for this molecule, `Cc1c(-c2ccc(C[C@H](NC(=O)c3c(F)cccc3F)C(=O)O)cc2)c(=O)n(C)c(=O)n1C` ? 29.7

---

# Target Under Test: Integrin alpha-4/beta-7 (Homo sapiens) (UniProt P13612+P26010)
# Test Description: Inhibition of human MAdCAM1 binding to integrin alpha4beta7 receptor in human RPMI 8866 cells labeled with Calcein AM relative to (S)-2-(2-chloro-6-methylbenzamido)-3-(4-(2,6-dichlorobenzamido)phenyl)propanoic acid
# Type: cell-based
Quantity Kind: Ratio IC50
The response must contain the number and no unit.

> print(dat)
                            compound.smiles  quantity.kind  assay.value
1  Cn1c(C(F)(F)F)c(-c2ccc(C[C@H](NC(=O)c3c(Cl)cccc3Cl)C(=O)O)cc2)c(=O)n(C)c1=O     Ratio IC50          1.3
2  Cc1c(-c2ccc(C[C@H](NC(=O)c3c(C(C)C)cccc3C(C)C)C(=O)O)cc2)c(=O)n(C)c(=O)n1C     Ratio IC50         0.15
3  COCCC1(C(=O)N[C@@H](Cc2ccc(-c3c(C)n(C)c(=O)n(C)c3=O)cc2)C(=O)O)CCCC1     Ratio IC50            1

Look up Ratio IC50 with Integrin alpha-4/beta-7 (Homo sapiens) (UniProt P13612+P26010) for this molecule: `CCn1c(C)c(-c2ccc(C[C@H](NC(=O)C3(CCOC)CCCC3)C(=O)O)cc2)c(=O)n(CC)c1=O` 0.46

API: value(readout= Ratio IC50, system= Integrin alpha-4/beta-7 (Homo sapiens) (UniProt P13612+P26010), query= `Cc1c(-c2ccc(C[C@H](NC(=O)c3c(Cl)cccc3C(C)C)C(=O)O)cc2)c(=O)n(C)c(=O)n1C` ) 1

Value wanted: Ratio IC50 (Integrin alpha-4/beta-7 (Homo sapiens) (UniProt P13612+P26010)) of entry `CCn1c(C)c(-c2ccc(C[C@H](NC(=O)c3c(Cl)cccc3Cl)C(=O)O)cc2)c(=O)n(CC)c1=O` 4.8

Requested read-out Ratio IC50, target or system Integrin alpha-4/beta-7 (Homo sapiens) (UniProt P13612+P26010), entry `Cc1cc(C[C@H](NC(=O)c2c(Cl)cccc2Cl)C(=O)O)ccc1-c1c(C)n(C)c(=O)n(C)c1=O` 3.6
